Target: T1, human CD22 protein (recombinant CD22 extracellular domain) (human, UniProt P20273 20-687)
T1 construct: extracellular domain; also called SIGLEC-2
T1 sequence (looked up): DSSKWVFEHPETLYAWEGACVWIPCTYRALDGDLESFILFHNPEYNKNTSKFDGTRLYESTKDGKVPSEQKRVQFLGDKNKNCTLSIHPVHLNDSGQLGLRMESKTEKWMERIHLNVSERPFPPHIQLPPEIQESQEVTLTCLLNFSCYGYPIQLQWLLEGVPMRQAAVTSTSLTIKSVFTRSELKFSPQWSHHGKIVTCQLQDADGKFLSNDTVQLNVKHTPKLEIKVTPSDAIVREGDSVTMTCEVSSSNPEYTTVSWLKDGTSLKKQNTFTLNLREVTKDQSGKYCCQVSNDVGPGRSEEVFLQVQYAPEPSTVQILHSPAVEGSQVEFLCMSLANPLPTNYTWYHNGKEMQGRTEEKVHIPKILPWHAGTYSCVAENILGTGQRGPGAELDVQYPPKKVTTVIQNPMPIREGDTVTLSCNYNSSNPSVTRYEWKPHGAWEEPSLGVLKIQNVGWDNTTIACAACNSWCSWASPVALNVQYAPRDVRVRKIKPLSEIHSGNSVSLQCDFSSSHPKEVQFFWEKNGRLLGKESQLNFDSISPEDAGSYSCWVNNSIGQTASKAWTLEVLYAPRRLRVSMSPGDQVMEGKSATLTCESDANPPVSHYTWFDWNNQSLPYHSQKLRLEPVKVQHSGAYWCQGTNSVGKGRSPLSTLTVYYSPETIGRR
Assay: ELISA on recombinant CD22 extracellular domain and/or cell binding
measured-property: binding result

anti-CD22 heavy chain-only antibody with the VH of SEQ ID NO: 64 (antibody, V domains shown, Heavy chain-only antibody (UniAb), human IgG) VH: QLQLQESGPGLVKPSETLSLTCTVSGGSISSSSYYWGWIRQPPGKGLEWIGHIYYSGATYYNPSLKNRVTISVDTSKNQFSLKLSSVTAADTAVYYCTRDDSSNWRSRGQGTLVTVSS | binds
anti-CD22 heavy chain-only antibody with the VH of SEQ ID NO: 38 (antibody, V domains shown, Heavy chain-only antibody (UniAb), human IgG) VH: QLQLQESGPGLVKPSETLSLTCTVSGDSISSGDYYWGWIRQPPGKGLEWIGHIYYSGATYYNPSLKNRVTISVDTSRNQFSLNLSSVTAADTAVYYCTREDSSNWRSRGQGTLVTVSS | binds
